The measurements presented in this section are drawn from the supplement of paper PMC12042874.

- PROTOCOL DESCRIPTION: amyloid nucleation score (Sup35N fusion, yeast selection) (log enrichment); library NNK1; higher = more nucleation; inactive = no reads after selection;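 also: zero at mode of non-aggregating sequences after 7 days selection at 30°C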

SUBSTANCE: HLNLIVTRFASIWVAAFMCR
amyloid nucleation score: -0.282

SUBSTANCE: MQMSLTDSGGVYVDGLVGYL
amyloid nucleation score: -0.239

SUBSTANCE: RHDALLSGLYHCRCNQLNVC
amyloid nucleation score: 4.2

SUBSTANCE: IDWKLKLMFMCFESKSLVNW
amyloid nucleation score: -0.655

SUBSTANCE: MLVFYCNRN
amyloid nucleation score: 2.88

SUBSTANCE: DHFPARKVGCTILTCMMQKL
amyloid nucleation score: 0.697

SUBSTANCE: TRTLLNVHCCPSVW
amyloid nucleation score: 6.61

SUBSTANCE: CAYVVVLLCSVLVDAGYVCR
amyloid nucleation score: 1.94

SUBSTANCE: LQKVFLAVDSYW
amyloid nucleation score: -0.347

SUBSTANCE: KSAEIKEQCTTWFMYTMLGA
amyloid nucleation score: -0.785

SUBSTANCE: IGVKVTY
amyloid nucleation score: -0.796

SUBSTANCE: LLYTVY
amyloid nucleation score: -0.849

SUBSTANCE: LEGLRQDEVGRSASKTVKYS
amyloid nucleation score: 1.18

SUBSTANCE: MTSYGSFRKATWNDWISNMS
amyloid nucleation score: -0.393

SUBSTANCE: FTVLVELALFMRSCLSRGFN
amyloid nucleation score: -0.261

SUBSTANCE: CWGWMARLAINLAGTGSNQK
amyloid nucleation score: 0.119

SUBSTANCE: HSRRCYNESS
amyloid nucleation score: 1.7

SUBSTANCE: FQCVILVPG
amyloid nucleation score: 1.03

* * *

- PROTOCOL DESCRIPTION: amyloid nucleation score (Sup35N fusion, yeast selection) (log enrichment); library NNK1; higher = more nucleation; inactive = no reads after selection
# Lookup of reported amyloid nucleation score keyed by entry
MEASURED ATTRIBUTE: amyloid nucleation score

SUBSTANCE: LLRMIKICYDLRSNLDSWRS
EXPERIMENTAL VALUE: -0.529

SUBSTANCE: SGCRYSAIVGSPMRCNMYRS
EXPERIMENTAL VALUE: -0.756

SUBSTANCE: LSEDVHRTVVRYWMKSRR
EXPERIMENTAL VALUE: 1.74

SUBSTANCE: VHTVYLLVDTR
EXPERIMENTAL VALUE: 0.289

SUBSTANCE: YVPPSMMLNGGDPEYSVGLK
EXPERIMENTAL VALUE: 0.082

SUBSTANCE: LKYKKLPFIKRDEKFPTNRN
EXPERIMENTAL VALUE: 0.398

SUBSTANCE: KYKESMYLRLCFRYVWTNYS
EXPERIMENTAL VALUE: 0.441

SUBSTANCE: ECGVFQVKTAGIGS
EXPERIMENTAL VALUE: -0.425

SUBSTANCE: VWTDGGSYFRDLNRICGV
EXPERIMENTAL VALUE: 3.74

SUBSTANCE: CSSFAQ
EXPERIMENTAL VALUE: 0.549

SUBSTANCE: GLLLSCSWNIDVSA
EXPERIMENTAL VALUE: 0.235

SUBSTANCE: VAFLTKNCYEFDDTVRTCAV
EXPERIMENTAL VALUE: -0.569

SUBSTANCE: GCIECEGAGCAPIYGVEWLD
EXPERIMENTAL VALUE: 0.122

SUBSTANCE: RLFSENMQEVMV
EXPERIMENTAL VALUE: -0.698

SUBSTANCE: TGLYSYIGFSDGYCVYEMIT
EXPERIMENTAL VALUE: -0.122

SUBSTANCE: FLLLFDQFSVLMCCAQVLCL
EXPERIMENTAL VALUE: 4.56
